SYSTEM: AuroraB (Homo sapiens, UniProt Q96GD4)
Construct: 20 µL of AuroraB FL His; His
Sequence (Q96GD4 whole entry): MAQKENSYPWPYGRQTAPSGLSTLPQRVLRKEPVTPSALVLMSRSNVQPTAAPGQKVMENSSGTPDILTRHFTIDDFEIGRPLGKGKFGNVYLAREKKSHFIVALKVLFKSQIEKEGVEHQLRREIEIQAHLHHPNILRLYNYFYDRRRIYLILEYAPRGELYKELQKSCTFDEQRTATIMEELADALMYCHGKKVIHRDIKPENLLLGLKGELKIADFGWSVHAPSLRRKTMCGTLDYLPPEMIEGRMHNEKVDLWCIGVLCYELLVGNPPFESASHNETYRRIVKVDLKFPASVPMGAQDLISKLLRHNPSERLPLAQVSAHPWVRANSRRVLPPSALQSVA
TEST_METHOD_NOTES: AuroraB Homogeneous Time Resolved Fluorescent (HTRF) kinase assay
Format: biochemical
DETAILS: average; given as class symbols; read-out: AurB_ _IC50_IP (Avg)
# maps each entry to its IC50

Record excerpt, results attached:
>  <MOLECULE>
c1ccc(-c2nnc(Nc3ccc(Oc4ncccc4-n4ccnc4)cc3)c3ccccc23)cc1

>  <ASSAY_ENDPOINT>
IC50

>  <ENDPOINT_RESULT>
0.5 to 2.5 µM

$$$$
>  <MOLECULE>
O=S(=O)(O)CCCNc1nccc(-c2cccnc2Oc2ccc(Nc3nnc(-c4ccccc4)c4ccccc34)cc2)n1

>  <ASSAY_ENDPOINT>
IC50

>  <ENDPOINT_RESULT>
0.1 to 0.5 µM

$$$$
>  <MOLECULE>
Nc1nccc(-c2cccnc2Oc2ccc(Nc3nnc(-c4ccc(Cl)cc4)c4ccccc34)cn2)n1

>  <ASSAY_ENDPOINT>
IC50

>  <ENDPOINT_RESULT>
≤ 0.1 µM

$$$$
>  <MOLECULE>
Nc1nccc(-c2cccnc2Oc2ccc(Nc3nnc(N4CCN5CCCC5C4)c4ccccc34)cc2)n1 (stereo not drawn)

>  <ASSAY_ENDPOINT>
IC50

>  <ENDPOINT_RESULT>
≤ 0.1 µM

$$$$
>  <MOLECULE>
Nc1nccc(-c2cccnc2Oc2ccc(Nc3nnc(-c4ccccc4OC(F)(F)F)c4ccccc34)cn2)n1

>  <ASSAY_ENDPOINT>
IC50

>  <ENDPOINT_RESULT>
≤ 0.1 µM

$$$$
>  <MOLECULE>
Nc1nccc(-c2cccnc2Oc2ccc(Nc3nnc(-c4ccccn4)c4ccccc34)cc2)n1

>  <ASSAY_ENDPOINT>
IC50

>  <ENDPOINT_RESULT>
≤ 0.1 µM

$$$$

Input: Fill in the blank: the reported IC50 of CCOc1ccc(-c2nnc(Nc3ccc(Oc4ncccc4-c4ccnc(N)n4)cc3)c3ccccc23)cc1 is ____.
Output: ≤ 0.1 µM

Input: Request: Nc1nccc(-c2cccnc2Oc2ccc(Nc3nnc(N4CCNCC4)c4ccccc34)cc2)n1
Output: 0.1 to 0.5 µM

Input: Consider next the molecule Nc1nccc(-c2cccnc2Oc2ccc(Nc3nnc(-c4cc(F)ccc4O)c4ccccc34)cn2)n1 in the same way.
Output: ≤ 0.1 µM

Input: Entry COc1ccc(F)c(-c2nnc(Nc3ccc(Oc4ncccc4-c4ccnc(N)n4)nc3)c3ccccc23)c1 please
Output: ≤ 0.1 µM

Input: Also, Cc1cc(Br)cnc1Nc1ccc(Oc2ncccc2-c2ccncc2)cc1 please.
Output: 0.5 to 2.5 µM

Input: What would you report for CN(C)CCCOc1cccc(-c2nnc(Nc3ccc(Oc4ncccc4-c4ccnc(N)n4)cc3)c3ccccc23)c1 ?
Output: ≤ 0.1 µM

Input: Try this molecule next: CCN(CCO)CCCNc1nccc(-c2cccnc2Oc2ccc(Nc3nnc(-c4ccccc4)c4ccccc34)cc2)n1
Output: ≤ 0.1 µM

Input: Another molecule to look at: FC1(F)CCCN(CCCNc2nccc(-c3cccnc3Oc3ccc(Nc4nnc(-c5ccccc5)c5ccccc45)cc3)n2)C1
Output: ≤ 0.1 µM

Input: Moving on to COc1cccc(-c2nnc(Nc3ccc(Oc4ncccc4-c4c[nH]nc4N)cc3)c3ccccc23)c1
Output: ≤ 0.1 µM

FYI, the data here is from patent EP1984353B1.
